Values compiled from PubChem BioAssay (NCI).

Tested on: HCT-116 colon
Assay: NCI-60 one-dose screen, 48 h
Details: 10 µM unless noted
About 83,000 compounds went through this panel and 20% of them were active in at least one assay; those are over-represented in the sample as a whole. The source made the active and inactive calls. Rule for the calls: active = growth percent below 10; inactive = the rest.
Parameter call: string, one of y for active, n for inactive

>  <Compound>
COc1cc(C2CC(c3cc(OC)c(OC)c(OC)c3)=Nc3c(N)nc(N)nc3N2)ccc1Oc1nc(NCCO)nc(N2CCOCC2)n1 (stereo not drawn)

>  <System Name>
HCT-116 colon

>  <Category>
n

$$$$
>  <Compound>
CCCSc1nc(NCCc2c[nH]c3ccccc23)c(C#N)c(-c2ccc(F)cc2)n1

>  <System Name>
HCT-116 colon

>  <Category>
n

$$$$
>  <Compound>
CC(=O)NNc1ccc2nnc(-c3ccccc3)n2n1

>  <System Name>
HCT-116 colon

>  <Category>
n

$$$$
>  <Compound>
CC(C)c1sc(NC(=O)c2cc(NC(=O)c3cc(NC(=O)c4nccn4C)cn3C)cn2C)nc1C(=O)NCCCN(C)C

>  <System Name>
HCT-116 colon

>  <Category>
n

$$$$
>  <Compound>
CCCn1cc(-c2nc(Nc3ccc(C(=O)NCCCCNc4cccc5c4C(=O)N(C4CCC(=O)NC4=O)C5=O)cc3)nc3[nH]ccc23)cn1 (stereo not drawn)

>  <System Name>
HCT-116 colon

>  <Category>
n

$$$$

q: Hi, do you know how CC1=C(C(=O)OC(C)C)C(c2cccc(O)c2)NC(=S)N1 (stereo not drawn) came out in this test?
a: n

q: Repeat with CC12CC[C@@H]3[C@]4(C)COC(c5cn[nH]c5-c5ccc(Cl)cc5)O[C@@H]4CC[C@@]3(C)[C@@H]1CC(C1=CCOC1=O)O2 (stereo partly drawn)
a: n

q: Repeat with C=C1CCC2C3(C)COC(c4cc(F)cc(F)c4)OC3CCC2(C)C1CC(O)C1=CCOC1=O (stereo not drawn)
a: y
